Test: Inhibition of V66A-mutated CK2 holoenzyme
Set-up: species or system Zea mays
log10 IC50: recorded values
Values are log10 of IC50 in µM.

// below: answered molecules
## Input Consider the molecule O=C(O)Cc1c2ccccc2n2c1[nH]c(=O)c1ccccc12 and give its measured log10 IC50.
## Output 1.43

## Input // query log10 IC50 value for entry Cc1cc(O)c2c(c1)C(=O)c1cc(O)cc(O)c1C2=O
## Output 1.58

## Input Which log10 IC50 is reported for this molecule? CO[C@H]1[C@@H](N(C)C(=O)c2ccc(C(=O)O)cc2)C[C@@H]2O[C@@]1(C)n1c3ccccc3c3c4c(c5c6ccccc6n2c5c31)C(=O)NC4
## Output 0.30

## Input Bench note: what log10 IC50 did O=c1c(O)c(-c2ccc(O)c(O)c2)oc2cc(O)cc(O)c12 show?
## Output 0.04

## Input Field request: log10 IC50 | item: O=c1cc(-c2ccc(O)cc2)oc2cc(O)cc(O)c12
## Output 1.00

Now look at this one.
## Input // query log10 IC50 value for entry Brc1c(Br)c(Br)c2[nH]nnc2c1Br
## Output 1.11
